Could you please report measured protein stability index for the items listed next?
B1: ZNF263 (parent)
chain: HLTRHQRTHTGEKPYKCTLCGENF

variants of: B1; experiment: protein stability index of a GFP-peptide fusion (GPS, HEK-293T) (PSI 1-6); higher = more stable; details: c terminus: a fixed tail appended;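 further: lentivirally expressed fusions sorted by FACS into six bins by GFP to DsRed ratio, PSI derived from sequencing read proportions per bin multiplied by bin number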
Answer field: number only, no words.

Exam item: Give protein stability index for `T8M`
Marked response: 2.5

Exam item: Give protein stability index for `L2D`
Marked response: 4.16

Exam item: Give protein stability index for `H1Q`
Marked response: 3.06

Exam item: Give protein stability index for `R7S`
Marked response: 3.36

Exam item: Give protein stability index for `T8S`
Marked response: 3.4

Exam item: Give protein stability index for `T18V`
Marked response: 2.42

Exam item: Give protein stability index for `G21P`
Marked response: 2.68

Exam item: Give protein stability index for `Q6V`
Marked response: 2.29

Exam item: Give protein stability index for `H5V`
Marked response: 2.27

Exam item: Give protein stability index for `Y15E`
Marked response: 3.69

Exam item: Give protein stability index for `E12K`
Marked response: 3.2

Exam item: Give protein stability index for `H5P`
Marked response: 2.91

Exam item: Give protein stability index for `H1S`
Marked response: 3.12

Exam item: Give protein stability index for `T18L`
Marked response: 2.49

Exam item: Give protein stability index for `H5G`
Marked response: 3

Exam item: Give protein stability index for `K13S`
Marked response: 3.24

Exam item: Give protein stability index for `C20L`
Marked response: 2.61

Exam item: Give protein stability index for `G21F`
Marked response: 2.43

Exam item: Give protein stability index for `P14C`
Marked response: 2.52

Exam item: Give protein stability index for `C17V`
Marked response: 3.7

Exam item: Give protein stability index for `Q6T`
Marked response: 2.75

Exam item: Give protein stability index for `H9G`
Marked response: 3.04

Exam item: Give protein stability index for `E12P`
Marked response: 2.8

Exam item: Give protein stability index for `F24E`
Marked response: 4.08

Exam item: Give protein stability index for `H9R`
Marked response: 3.11

Exam item: Give protein stability index for `E22L`
Marked response: 2.08

Exam item: Give protein stability index for `C20N`
Marked response: 3.25

Exam item: Give protein stability index for `N23A`
Marked response: 2.68

Exam item: Give protein stability index for `G11Q`
Marked response: 3.55

Exam item: Give protein stability index for `E12D`
Marked response: 2.68

Exam item: Give protein stability index for `H1I`
Marked response: 2.19

Exam item: Give protein stability index for `K16M`
Marked response: 3.17

Exam item: Give protein stability index for `G21C`
Marked response: 2.73

Exam item: Give protein stability index for `H9S`
Marked response: 2.71

Exam item: Give protein stability index for `F24R`
Marked response: 3.13

Exam item: Give protein stability index for `C17S`
Marked response: 3.4

Exam item: Give protein stability index for `T10L`
Marked response: 1.98

Exam item: Give protein stability index for `L2Q`
Marked response: 3.22

Exam item: Give protein stability index for `Q6H`
Marked response: 3.28

Exam item: Give protein stability index for `P14L`
Marked response: 3.14

Exam item: Give protein stability index for `T10F`
Marked response: 2.73

Exam item: Give protein stability index for `P14Q`
Marked response: 3.14
